system: Plasmodium falciparum protein kinase 6 (PK6, PF3D7_1337100)
assay-notes: PfPK6 kinase inhibitors, biochemical, TCAMS library (AID 1159586)
recorded-conditions: recombinant PfPK6, Kinase-Glo ATP depletion luminescence
Entries with a potency or affinity are not part of this list. Activity calls are given as the source filed them. How the calls were made is not given here.
reported-property: outcome

Example entries and their recorded answers appear below.
O=C(/C=C/c1ccc(Cl)c(Cl)c1)NCCCCCCN1CCN(C(=O)Nc2cc(Cl)nc(Cl)c2)CC1
inactive
O=S(=O)(c1ccc(OC(F)(F)F)cc1)C1C[C@H]2CC[C@@H](C1)N2S(=O)(=O)c1ccc(Cl)c(C(F)(F)F)c1 (stereo not given in full)
inactive
O=C(NCc1cccc(F)c1)Nc1cccc(-c2cccc(-c3nc4ccccc4[nH]3)c2)c1
inactive
Nc1nccc2ccc(-c3cccc(O)c3)cc12
inactive

// query Form field: reported outcome of COCCn1ccc2c3c(N)nc(N)nc3ccc21
// result inactive
